Below: a set of entries, each annotated with reported relative viability.
tested on: NCI-H2087; assay: relative viability (nuclei count vs DMSO), 5 days (fraction); higher = more cells survive; details: first compound 0.4 µM

Molecule: Cc1sc2c(c1C)C(c1ccc(Cl)cc1)=N[C@@H](CC(=O)OC(C)(C)C)c1nnc(C)n1-2 [JQ1] + C[C@]1(O)C[C@@H](c2nc(-c3ccc4ccc(-c5ccccc5)nc4c3)c3c(N)nccn32)C1 [Linsitinib] (partner 1 µM)
relative viability: 0.69

Molecule: Cc1sc2c(c1C)C(c1ccc(Cl)cc1)=N[C@@H](CC(=O)OC(C)(C)C)c1nnc(C)n1-2 [JQ1] + CS(=O)(=O)N1CCN(Cc2cc3nc(-c4cccc5[nH]ncc45)nc(N4CCOCC4)c3s2)CC1 [Pictilisib] (partner 1 µM)
relative viability: 1.05

Molecule: Cc1sc2c(c1C)C(c1ccc(Cl)cc1)=N[C@@H](CC(=O)OC(C)(C)C)c1nnc(C)n1-2 [JQ1] + O=C(CCCCCCC(=O)Nc1ccccc1)NO [Vorinostat] (partner 1 µM)
relative viability: 0.668

Molecule: Cc1sc2c(c1C)C(c1ccc(Cl)cc1)=N[C@@H](CC(=O)OC(C)(C)C)c1nnc(C)n1-2 [JQ1] + N=C(N)NC(=N)NCCc1ccccc1 [Phenformin] (partner 250 µM)
relative viability: 0.406

Molecule: Cc1sc2c(c1C)C(c1ccc(Cl)cc1)=N[C@@H](CC(=O)OC(C)(C)C)c1nnc(C)n1-2 [JQ1] + CS(=O)(=O)CCNCc1ccc(-c2ccc3ncnc(Nc4ccc(OCc5cccc(F)c5)c(Cl)c4)c3c2)o1 [Lapatinib] (partner 2 µM)
relative viability: 0.904

Molecule: Cc1sc2c(c1C)C(c1ccc(Cl)cc1)=N[C@@H](CC(=O)OC(C)(C)C)c1nnc(C)n1-2 [JQ1] + CC(=O)c1c(C)c2cnc(Nc3ccc(N4CCNCC4)cn3)nc2n(C2CCCC2)c1=O [Palbociclib] (partner 0.5 µM)
relative viability: 0.153

Molecule: Cc1sc2c(c1C)C(c1ccc(Cl)cc1)=N[C@@H](CC(=O)OC(C)(C)C)c1nnc(C)n1-2 [JQ1] + COc1cc2c(Oc3ccc(NC(=O)C4(C(=O)Nc5ccc(F)cc5)CC4)cc3F)ccnc2cc1OCCCN1CCOCC1 [Foretinib] (partner 0.25 µM)
relative viability: 0.766

Molecule: Cc1sc2c(c1C)C(c1ccc(Cl)cc1)=N[C@@H](CC(=O)OC(C)(C)C)c1nnc(C)n1-2 [JQ1] + CCNC(=O)c1noc(-c2cc(C(C)C)c(O)cc2O)c1-c1ccc(CN2CCOCC2)cc1 [Luminespib] (partner 0.01 µM)
relative viability: 0.173

Molecule: Cc1sc2c(c1C)C(c1ccc(Cl)cc1)=N[C@@H](CC(=O)OC(C)(C)C)c1nnc(C)n1-2 [JQ1] + Nc1nc2[nH]cc(CCc3ccc(C(=O)N[C@@H](CCC(=O)O)C(=O)O)cc3)c2c(=O)[nH]1 [Pemetrexed] (partner 0.2 µM)
relative viability: 0.692

---

Below: a set of entries, each annotated with reported relative viability.
tested on: SW 1573; assay: relative viability (nuclei count vs DMSO), 5 days (fraction); higher = more cells survive; settings: first compound 0.1581 µM

Compound: Nc1ccn([C@@H]2O[C@H](CO)[C@@H](O)[C@@H]2O)c(=O)n1 [Cytarabine] + C[C@@H](Oc1cc(-c2cnn(C3CCNCC3)c2)cnc1N)c1c(Cl)ccc(F)c1Cl [Crizotinib] (partner 1 µM)
Test target: SW 1573
relative viability: 0.412

Compound: Nc1ccn([C@@H]2O[C@H](CO)[C@@H](O)[C@@H]2O)c(=O)n1 [Cytarabine] + Nc1ncn([C@H]2C[C@H](O)[C@@H](CO)O2)c(=O)n1 [Decitabine] (partner 2 µM)
Test target: SW 1573
relative viability: 0.121

Compound: COc1cc2nccc(Oc3ccc(NC(=O)Nc4cc(C)on4)c(Cl)c3)c2cc1OC [Tivozanib] + CCNC(=O)c1noc(-c2cc(C(C)C)c(O)cc2O)c1-c1ccc(CN2CCOCC2)cc1 [Luminespib] (partner 0.01 µM)
Test target: SW 1573
relative viability: 0.226

Compound: COc1cc2nccc(Oc3ccc(NC(=O)Nc4cc(C)on4)c(Cl)c3)c2cc1OC [Tivozanib] + CC(=O)c1c(C)c2cnc(Nc3ccc(N4CCNCC4)cn3)nc2n(C2CCCC2)c1=O [Palbociclib] (partner 0.5 µM)
Test target: SW 1573
relative viability: 0.391

Compound: Nc1ccn([C@@H]2O[C@H](CO)[C@@H](O)[C@@H]2O)c(=O)n1 [Cytarabine] + CC(=O)c1c(C)c2cnc(Nc3ccc(N4CCNCC4)cn3)nc2n(C2CCCC2)c1=O [Palbociclib] (partner 0.5 µM)
Test target: SW 1573
relative viability: 0.147
